Test system: CCRF-CEM
Assay: Tested for the inhibitory activity of virus induced giant cell formation in HIV-1 infected CEM cells
Assay type: functional, cell-based
Conditions: Homo sapiens
Classify: Y when EC50 is strictly less than 1000 nM; N when EC50 is not.

# compound, assigned-class
measured = [
    ("Cc1ccnc2c1NC(=O)c1cccnc1N2C1CC1 [NEVIRAPINE]", "Y"),
    ("CCOC(=O)c1cn([C@@H]2O[C@H](CO[Si](C)(C)C(C)(C)C)[C@@]3(OS(=O)(=O)C=C3N)[C@H]2O[Si](C)(C)C(C)(C)C)nn1", "Y"),
]

Now for another entry.
Query: Here's an entry: CC(C)(C)[Si](C)(C)OC[C@H]1O[C@@H](n2cc(CBr)nn2)[C@H](O[Si](C)(C)C(C)(C)C)[C@]12OS(=O)(=O)C=C2N . Is its EC50 below 1000 nM?
Response: N

----------
Tested on: CCRF-CEM
Assay: Tested for the inhibitory activity of virus induced giant cell formation in HIV-2 infected CEM cells
Assay type: functional, cell-based
Conditions: Homo sapiens
property: EC50

Observe how each entry below is paired with its result.
# compound, value-observed
data = [
    ("Cc1ccnc2c1NC(=O)c1cccnc1N2C1CC1 [NEVIRAPINE]", "> 80 µM"),
    ("CC(C)(C)[Si](C)(C)OC[C@H]1O[C@@H](n2cc(CCCCl)nn2)[C@H](O[Si](C)(C)C(C)(C)C)[C@]12OS(=O)(=O)C=C2N", "> 33 µM"),
    ("Cc1cn([C@@H]2O[C@H](CO[Si](C)(C)C(C)(C)C)[C@@]3(OS(=O)(=O)C=C3N)[C@H]2O[Si](C)(C)C(C)(C)C)nn1", "> 6.9 µM"),
    ("CCOC(OCC)c1cnnn1[C@@H]1O[C@H](CO[Si](C)(C)C(C)(C)C)[C@@]2(OS(=O)(=O)C=C2N)[C@H]1O[Si](C)(C)C(C)(C)C", "> 150 µM"),
    ("CN(C)C(=O)c1cnnn1[C@@H]1O[C@H](CO[Si](C)(C)C(C)(C)C)[C@@]2(OS(=O)(=O)C=C2N)[C@H]1O[Si](C)(C)C(C)(C)C", "> 7 µM"),
]

For the next question, use this compound.
Query: Form field: EC50 recorded for CNC(=O)c1cn([C@@H]2O[C@H](CO[Si](C)(C)C(C)(C)C)[C@@]3(OS(=O)(=O)C=C3N)[C@H]2O[Si](C)(C)C(C)(C)C)nn1 with CCRF-CEM (enter value)
Response: > 7 µM

----------
Measured pEC50 by item
System: CCRF-CEM
Assay: Tested for the inhibitory activity of virus induced giant cell formation in HIV-2 infected CEM cells
Format: functional, cell-based
Conditions: Homo sapiens
pEC50: −log10 of the molar value.

Observe how each entry below is paired with its result.
# compound, measured-target, pEC50
measured = [
    ("CC(C)(C)[Si](C)(C)OC[C@H]1O[C@@H](n2ccnn2)[C@H](O[Si](C)(C)C(C)(C)C)[C@]12OS(=O)(=O)C=C2N", "CCRF-CEM", "< 5.12"),
    ("Cc1cn([C@@H]2O[C@H](CO[Si](C)(C)C(C)(C)C)C3(OS(=O)(=O)C=C3N)[C@H]2O[Si](C)(C)C(C)(C)C)c(=O)[nH]c1=O (stereo partly drawn)", "CCRF-CEM", "< 4.70"),
    ("CCOC(OCC)c1cn([C@@H]2O[C@H](CO[Si](C)(C)C(C)(C)C)[C@@]3(OS(=O)(=O)C=C3N)[C@H]2O[Si](C)(C)C(C)(C)C)nn1", "CCRF-CEM", "< 3.82"),
    ("CCCc1cn([C@@H]2O[C@H](CO[Si](C)(C)C(C)(C)C)[C@@]3(OS(=O)(=O)C=C3N)[C@H]2O[Si](C)(C)C(C)(C)C)nn1", "CCRF-CEM", "< 4.46"),
    ("CC(C)(C)[Si](C)(C)OC[C@H]1O[C@@H](n2cc(C(N)=O)nn2)[C@H](O[Si](C)(C)C(C)(C)C)[C@]12OS(=O)(=O)C=C2N", "CCRF-CEM", "< 5.15"),
    ("CCCCc1cnnn1[C@@H]1O[C@H](CO[Si](C)(C)C(C)(C)C)[C@@]2(OS(=O)(=O)C=C2N)[C@H]1O[Si](C)(C)C(C)(C)C", "CCRF-CEM", "< 4.46"),
    ("CC(C)(C)[Si](C)(C)OC[C@H]1O[C@@H](n2nncc2CBr)[C@H](O[Si](C)(C)C(C)(C)C)[C@]12OS(=O)(=O)C=C2N", "CCRF-CEM", "< 5.22"),
    ("CN(C)C(=O)c1cn([C@@H]2O[C@H](CO[Si](C)(C)C(C)(C)C)[C@@]3(OS(=O)(=O)C=C3N)[C@H]2O[Si](C)(C)C(C)(C)C)nn1", "CCRF-CEM", "< 5.15"),
    ("CC(=O)c1cnnn1[C@@H]1O[C@H](CO[Si](C)(C)C(C)(C)C)[C@@]2(OS(=O)(=O)C=C2N)[C@H]1O[Si](C)(C)C(C)(C)C", "CCRF-CEM", "< 4.15"),
    ("CC(=O)c1cn([C@@H]2O[C@H](CO[Si](C)(C)C(C)(C)C)[C@@]3(OS(=O)(=O)C=C3N)[C@H]2O[Si](C)(C)C(C)(C)C)nn1", "CCRF-CEM", "< 4.46"),
]

Query: Which pEC50 reading was recorded for the compound CNC(=O)c1cnnn1[C@@H]1O[C@H](CO[Si](C)(C)C(C)(C)C)[C@@]2(OS(=O)(=O)C=C2N)[C@H]1O[Si](C)(C)C(C)(C)C ?
Response: < 5.15

Query: Which pEC50 reading was recorded for the compound CCOC(=O)c1cn([C@@H]2O[C@H](CO[Si](C)(C)C(C)(C)C)[C@@]3(OS(=O)(=O)C=C3N)[C@H]2O[Si](C)(C)C(C)(C)C)nn1 ?
Response: < 3.78

Query: Which pEC50 reading was recorded for the compound COC(=O)c1cn([C@@H]2O[C@H](CO[Si](C)(C)C(C)(C)C)[C@@]3(OS(=O)(=O)C=C3NC(C)=O)[C@H]2O[Si](C)(C)C(C)(C)C)nn1 ?
Response: < 4.49

----------
Tested on: CCRF-CEM
Experiment: Tested for the inhibitory activity of virus induced giant cell formation in HIV-1 infected CEM cells
Format: functional, cell-based
Details: Homo sapiens
property: EC50 (nM)
Output spec: scalar in nM, unitless text.

# input-smiles, property, value-observed
data = [
    ("CCOC(=O)c1cnnn1[C@@H]1O[C@H](CO[Si](C)(C)C(C)(C)C)[C@@]2(OS(=O)(=O)C=C2N)[C@H]1O[Si](C)(C)C(C)(C)C", "EC50", 1300),
]

Query: Form field: EC50 recorded for COCc1cn([C@@H]2O[C@H](CO[Si](C)(C)C(C)(C)C)[C@@]3(OS(=O)(=O)C=C3N)[C@H]2O[Si](C)(C)C(C)(C)C)nn1 with CCRF-CEM (enter value)
Response: 2300

----------
System: CCRF-CEM
Assay: Tested for the inhibitory activity of virus induced giant cell formation in HIV-1 infected CEM cells
Type: functional, cell-based
Conditions: Homo sapiens
pEC50: −log10 of the molar value.
Give label 1 when the value for pEC50 is at least 6. Give label 0 when it is less.

Below are worked cases with known answers.
# input-smiles, assigned-class
data = [
    ("CN(C)C(=O)c1cnnn1[C@@H]1O[C@H](CO[Si](C)(C)C(C)(C)C)[C@@]2(OS(=O)(=O)C=C2N)[C@H]1O[Si](C)(C)C(C)(C)C", "label 1"),
    ("COC(=O)c1cn([C@@H]2O[C@H](CO[Si](C)(C)C(C)(C)C)[C@@]3(OS(=O)(=O)C=C3NC(C)=O)[C@H]2O[Si](C)(C)C(C)(C)C)nn1", "label 0"),
    ("COC(=O)c1cnnn1[C@@H]1O[C@H](CO[Si](C)(C)C(C)(C)C)[C@@]2(OS(=O)(=O)C=C2N)[C@H]1O[Si](C)(C)C(C)(C)C", "label 1"),
    ("CC(C)(C)[Si](C)(C)OC[C@H]1O[C@@H](n2cc([Si](C)(C)C)nn2)[C@H](O[Si](C)(C)C(C)(C)C)[C@]12OS(=O)(=O)C=C2N", "label 0"),
]

Now for another entry.
Query: Decide: pEC50 of CC(C)(C)[Si](C)(C)OC[C@H]1O[C@@H](n2ccnn2)[C@H](O[Si](C)(C)C(C)(C)C)[C@]12OS(=O)(=O)C=C2N >= 6?
Response: label 0

----------
System: CCRF-CEM
Assay: Tested for the inhibitory activity of virus induced giant cell formation in HIV-2 infected CEM cells
Assay type: functional, cell-based
Settings: Homo sapiens
pEC50: −log10 of the molar value.
property: pEC50

Observe how each entry below is paired with its result.
# input-smiles, value-observed
rows = [
    ("CCCCc1cn([C@@H]2O[C@H](CO[Si](C)(C)C(C)(C)C)[C@@]3(OS(=O)(=O)C=C3N)[C@H]2O[Si](C)(C)C(C)(C)C)nn1", "< 5.15"),
    ("COC(=O)c1cn([C@@H]2O[C@H](CO[Si](C)(C)C(C)(C)C)[C@@]3(OS(=O)(=O)C=C3N)[C@H]2O[Si](C)(C)C(C)(C)C)nn1", "< 4.40"),
    ("COC(=O)c1cnnn1[C@@H]1O[C@H](CO[Si](C)(C)C(C)(C)C)[C@@]2(OS(=O)(=O)C=C2N)[C@H]1O[Si](C)(C)C(C)(C)C", "< 4.40"),
    ("CCCc1cnnn1[C@@H]1O[C@H](CO[Si](C)(C)C(C)(C)C)[C@@]2(OS(=O)(=O)C=C2N)[C@H]1O[Si](C)(C)C(C)(C)C", "< 4.46"),
]

Query: Which pEC50 reading was recorded for the compound CCOC(=O)c1cnnn1[C@@H]1O[C@H](CO[Si](C)(C)C(C)(C)C)[C@@]2(OS(=O)(=O)C=C2N)[C@H]1O[Si](C)(C)C(C)(C)C ?
Response: < 3.78

Query: Which pEC50 reading was recorded for the compound CCOC(=O)c1nnn([C@@H]2O[C@H](CO[Si](C)(C)C(C)(C)C)[C@@]3(OS(=O)(=O)C=C3N)[C@H]2O[Si](C)(C)C(C)(C)C)c1C(=O)OCC ?
Response: < 4.22

Query: Which pEC50 reading was recorded for the compound CC(C)(C)[Si](C)(C)OC[C@H]1O[C@@H](n2nncc2CCCCl)[C@H](O[Si](C)(C)C(C)(C)C)[C@]12OS(=O)(=O)C=C2N ?
Response: < 5.15
